# credit: patent US10913736B2

- System: T. brucei
- PROTOCOL_TEXT: Growth inhibition assay of T. brucei cell cultures (Alamar Blue, 48 h)
- Assay type: cell-based
- CONDITION_SET: Trypanosoma brucei; read-out: B) T. brucei EC50
Consider the following compounds; for each one, report its log10 of EC50.
Transform log10 | Measure EC50 | Unit µM

Some compounds with known log10 of EC50 results, for comparison:
# COMPOUND, log10 of EC50
rows = [
    ("O=C(CCOc1ccc(Cl)cc1Cl)NCc1nc2cccnc2[nH]1", 0.94),
    ("CC(C)[C@@H](Cc1nc2ccc(Cl)cc2[nH]1)NCc1cc(Cl)cc(Cl)c1", 0.87),
    ("Clc1cc(Cl)cc(CNCC2CCCN2c2nc3nc(Cl)ccc3[nH]2)c1 (centres unmarked)", -0.32),
    ("CCOc1c(Br)cc(Cl)cc1CN[C@H]1CCCN(c2nc3nc(Cl)ccc3[nH]2)C1", -0.64),
    ("CC(=O)N(Cc1cc(Cl)cc(Cl)c1)C1CCCC(c2nc3ccccc3[nH]2)C1 (centres unmarked)", 0.94),
    ("CCC(=O)N(CCN(C)c1nc2nc(Cl)ccc2[nH]1)Cc1cc(Cl)cc(Cl)c1", -0.84),
]

Now examine the next entry.
Item COc1ccc(Oc2cccc(NCCc3nc4ccccc4[nH]3)n2)c(Cl)c1 has what recorded log10 of EC50? 0.98

###

Quick record: IC50, MetRS (T. brucei) (Trypanosoma brucei brucei).
One number for each entry, in µM.

Some compounds with known IC50 results, for comparison:
# COMPOUND, IC50 [µM]
measured = [
    ("O=C(Cc1cc(Cl)cc(Cl)c1)N1CCCC(c2nc3cc(Cl)ccc3[nH]2)C1 (stereo not shown) [Compound 1734]", 0.06),
    ("CC(=O)N(Cc1ccc(Cl)cc1Cl)C1CCCC(c2nc3nc(Cl)ccc3[nH]2)C1 (stereo not shown) [Compound 1810]", 0.361),
]

Parameter requested: IC50. Apply to each item below.
1. O=C(COc1ccc(Cl)cc1Cl)NCc1cc2ccccc2[nH]1 [Compound 1674]
2. O=C(CNc1cc(Cl)cc(Cl)c1)NCc1nc2ccc(Cl)nc2[nH]1 [Compound 1990]

23
0.017

###

- Tested on: T. brucei
- PROTOCOL_TEXT: Growth inhibition assay of T. brucei cell cultures (Alamar Blue, 48 h)
- Assay type: cell-based
- CONDITION_SET: Trypanosoma brucei; read-out: B) T. brucei EC50
MEASURED_QUANTITY: pEC50
Give bare numbers, as −log10 of the molar value.

Some compounds with known pEC50 results, for comparison:
# COMPOUND, MEASURED_QUANTITY, NUMERIC_RESULT
rows = [
    ("O=C(Cc1cc(Cl)cc(Cl)c1)N1CCC[C@H](c2nc3cc(Cl)ccc3[nH]2)C1 [Compound 1758]", "pEC50", 5.33),
    ("CCOc1c(Cl)cc(Cl)cc1CN[C@H]1CCCN(c2nc3nc(Cl)ccc3[nH]2)C1 [Compound 1920]", "pEC50", 6.96),
    ("C[C@H](Cc1nc2ccc(Cl)cc2[nH]1)NCc1cc(Cl)cc(Cl)c1 [Compound 1806]", "pEC50", 5.48),
]

Now examine the next entry.
Item Clc1cc(Cl)cc(CNC2CCCN(c3nc4nc(Cl)ccc4[nH]3)C2)c1 (stereo not shown) [Compound 1811] has what recorded pEC50? 7.09
